Test Summary: Tmax in monkey at 2 mg/kg, po
Assay type: ADME, organism-based, Macaca mulatta
Parameters: dose 2 mg/kg, route oral
Assay Context: rhesus monkey, in vivo
Property Label: Tmax (h)

>>> measured_result("CC1(C)C[C@@H](CN2CCC(F)(CNC(=O)c3cc(Cl)cc(Cl)c3)CC2)CCO1")
1.5

====

Test Summary: Cmax in Wistar albino Glaxo rat model of absence epilepsy at 1 mg/kg
Format: ADME, organism-based
Design: dose 1 mg/kg
Assay Context: in vivo
Property Label: Cmax

>>> measured_result("CC1(C)C[C@@H](CN2CCC(F)(CNC(=O)c3cc(Cl)cc(Cl)c3)CC2)CCO1")
"0.06 µM"

====

Test Summary: AUC (0 to 4 hrs) in Wistar albino Glaxo rat model of absence epilepsy at 1 mg/kg
Type: ADME, organism-based
Set-up: time < 4 hr, dose 1 mg/kg
Assay Context: in vivo
Property Label: AUC(0-t) at 4 h (nM·h)

>>> measured_result("CC1(C)C[C@@H](CN2CCC(F)(CNC(=O)c3cc(Cl)cc(Cl)c3)CC2)CCO1")
150

====

Test Summary: AUC (0 to 4 hrs) in Wistar albino Glaxo rat model of absence epilepsy at 10 mg/kg
Type: ADME, organism-based
Parameters: time < 4 hr, dose 10 mg/kg
Assay Context: in vivo
Property Label: AUC(0-t) at 4 h (µM·h)

>>> measured_result("CC1(C)C[C@@H](CN2CCC(F)(CNC(=O)c3cc(Cl)cc(Cl)c3)CC2)CCO1")
2.96

====

Test Summary: Tmax in rat at 10 mg/kg, po
Assay type: ADME, organism-based
Parameters: dose 10 mg/kg, route oral
Assay Context: in vivo
Property Label: Tmax (min)

>>> measured_result("CC1(C)C[C@@H](CN2CCC(F)(CNC(=O)c3cc(Cl)cc(Cl)c3)CC2)CCO1")
42

====

Test Summary: AUC (0 to 24 hrs) in dog at 1 mg/kg, po
Assay type: ADME, organism-based, Canis lupus familiaris
Set-up: time < 24 hr, dose 1 mg/kg, route oral
Assay Context: plasma
Property Label: AUC(0-t) at 24 h (µM·h)

>>> measured_result("CC1(C)C[C@@H](CN2CCC(F)(CNC(=O)c3cc(Cl)cc(Cl)c3)CC2)CCO1")
15.8

====

Test Summary: Ratio of drug level in brain to plasma in rat after 9 hrs
Format: ADME, cell-free
Property Label: Kp at 9 h

>>> measured_result("CC1(C)C[C@@H](CN2CCC(F)(CNC(=O)c3cc(Cl)cc(Cl)c3)CC2)CCO1")
6

====

Test Summary: Oral bioavailability in dog at 1 mg/kg
Format: ADME, organism-based, Canis lupus familiaris
Assay Context: in vivo
Property Label: bioavailability (%)

>>> measured_result("CC1(C)C[C@@H](CN2CCC(F)(CNC(=O)c3cc(Cl)cc(Cl)c3)CC2)CCO1")
87
